These entries and their values trace back to PubChem BioAssay (NCI).

Tested on: A498 renal
assay.comment: NCI tumour cell line growth inhibition, 48 h; in the data active = GI50 below about 0.43 µM; inactive = the rest
Pick one: class 1 = active, class 0 = inactive

For orientation, consider the following solved cases.
>  <smi>
COc1ccc(OC)c2c1[nH]c(=O)c1c3ccccc3cn21

>  <measured.target>
A498 renal

>  <class.label>
class 0

$$$$
>  <smi>
NC(=S)N/N=C/C(=O)O

>  <measured.target>
A498 renal

>  <class.label>
class 0

$$$$
>  <smi>
Cc1cc(Nc2ccc(NC(=O)c3ccc(Nc4ccnc5ccccc45)cc3)cc2)nc(N)n1

>  <measured.target>
A498 renal

>  <class.label>
class 0

$$$$
>  <smi>
COc1cccc(F)c1C(=O)c1cnc(NC2CCN(S(C)(=O)=O)CC2)nc1N

>  <measured.target>
A498 renal

>  <class.label>
class 0

$$$$
>  <smi>
COC(=O)c1ccc2c(c1)nc(NC(=O)c1ccccc1)n2CCCc1ccccc1

>  <measured.target>
A498 renal

>  <class.label>
class 0

$$$$
>  <smi>
O=C(O)COc1ccc2c(=O)c3sc4c(=O)c5ccccc5c(=O)c4c3c(=O)c2c1

>  <measured.target>
A498 renal

>  <class.label>
class 0

$$$$

Data request: What did this assay record as the result for "Oc1ccc(Nc2ncnc3c2sc2ncccc23)cc1" ?
Data returned: class 1

Data request: Recorded test call requested for "COc1cc(Nc2ncccc2C(=O)NCc2cn(Cc3cccc(Oc4ccccc4)c3)nn2)cc(OC)c1"
Data returned: class 0

Data request: // param item: "O=C(Nc1ccc(Nc2ccncc2)cc1)c1ccc([N+](=O)[O-])cc1" ; yields the recorded call
Data returned: class 0

Data request: Given "NC(N)=N/N=C/c1c(-c2ccsc2)nc2sccn12" , state the outcome it received in this test.
Data returned: class 0

Data request: Per the assay record, what outcome was assigned to "N#Cc1c(NC(=O)NCc2ccccc2)sc2c1CCCCC2" ?
Data returned: class 1
